Reference source for all entries: patent US20160052926A1

System tested: Recombinant human FGFR2 (Homo sapiens, UniProt P21802)
Sequence (P21802 22-821): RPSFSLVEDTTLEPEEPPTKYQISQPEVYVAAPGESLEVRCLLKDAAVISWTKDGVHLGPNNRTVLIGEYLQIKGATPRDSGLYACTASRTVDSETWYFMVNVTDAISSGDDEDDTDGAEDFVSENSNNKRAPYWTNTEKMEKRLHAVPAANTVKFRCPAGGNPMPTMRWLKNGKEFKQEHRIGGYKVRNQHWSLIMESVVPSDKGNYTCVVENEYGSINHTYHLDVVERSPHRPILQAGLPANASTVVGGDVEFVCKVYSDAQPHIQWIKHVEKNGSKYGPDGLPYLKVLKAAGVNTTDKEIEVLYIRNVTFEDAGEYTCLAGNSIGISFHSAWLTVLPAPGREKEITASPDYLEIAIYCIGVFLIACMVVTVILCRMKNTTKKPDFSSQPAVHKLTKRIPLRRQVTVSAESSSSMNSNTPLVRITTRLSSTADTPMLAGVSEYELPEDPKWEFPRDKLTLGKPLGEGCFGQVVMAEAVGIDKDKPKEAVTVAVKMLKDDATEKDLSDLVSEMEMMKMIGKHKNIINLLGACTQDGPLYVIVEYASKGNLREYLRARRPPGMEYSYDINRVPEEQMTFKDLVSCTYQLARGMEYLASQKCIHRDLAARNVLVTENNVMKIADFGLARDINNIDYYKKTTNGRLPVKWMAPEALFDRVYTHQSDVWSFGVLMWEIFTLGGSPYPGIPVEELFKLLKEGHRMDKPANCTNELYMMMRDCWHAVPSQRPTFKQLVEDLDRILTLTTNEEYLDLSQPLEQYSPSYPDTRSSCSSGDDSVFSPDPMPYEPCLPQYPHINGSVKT
Experiment notes: Transcreener Kinase Assay of FGFR2
Assay type: biochemical
Study conditions: read-out: FGFR2 (FP) IC50
Property name: IC50 (nM)

Before answering, review these 4 worked examples.
CNC(=O)c1cc(CCc2cnc(Nc3ccc(N4C[C@@H](C)N[C@@H](C)C4)cc3)nc2)c(Cl)c(OC)c1 ... 6
CNC(=O)c1cc(CCc2cnc(Nc3cnn(CC(=O)N4CCN(C)CC4)c3)nc2)c(F)c(OC)c1 ... 6
CCN1CCN(c2cc(F)cc(Nc3ncc(CCc4cc(OC)cc(C(=O)NOC)c4)cn3)c2)CC1 ... 3
CNC(=O)c1cc(CCc2cnc(Nc3ccc4ncnn4c3)nc2)c(F)c(OC)c1 ... 12

a: CONC(=O)c1cc(CCc2cnc(Nc3ccc(N4CCN(C)[C@H](C)C4)cc3)nc2)cc(OC)c1
b: CCN1CCN(c2ccc(Nc3ncc(CCc4cc(C(=O)NC)cc(OC)c4Cl)cn3)cc2)CC1
c: CNC(=O)c1cc(CCc2cnc(Nc3ccc(CN4CCOCC4)cn3)nc2)c(F)c(OC)c1
d: CNC(=O)c1cc(CCc2cnc(Nc3cccnc3OC)nc2)c(F)c(OC)c1
Query: Please put the entries in order of rising IC50. Response format: the labels, sorted as the prompt asks.
Result: b, a, d, c

====

System tested: Recombinant human FGFR1 (Homo sapiens, UniProt P11362)
Sequence (P11362 22-822): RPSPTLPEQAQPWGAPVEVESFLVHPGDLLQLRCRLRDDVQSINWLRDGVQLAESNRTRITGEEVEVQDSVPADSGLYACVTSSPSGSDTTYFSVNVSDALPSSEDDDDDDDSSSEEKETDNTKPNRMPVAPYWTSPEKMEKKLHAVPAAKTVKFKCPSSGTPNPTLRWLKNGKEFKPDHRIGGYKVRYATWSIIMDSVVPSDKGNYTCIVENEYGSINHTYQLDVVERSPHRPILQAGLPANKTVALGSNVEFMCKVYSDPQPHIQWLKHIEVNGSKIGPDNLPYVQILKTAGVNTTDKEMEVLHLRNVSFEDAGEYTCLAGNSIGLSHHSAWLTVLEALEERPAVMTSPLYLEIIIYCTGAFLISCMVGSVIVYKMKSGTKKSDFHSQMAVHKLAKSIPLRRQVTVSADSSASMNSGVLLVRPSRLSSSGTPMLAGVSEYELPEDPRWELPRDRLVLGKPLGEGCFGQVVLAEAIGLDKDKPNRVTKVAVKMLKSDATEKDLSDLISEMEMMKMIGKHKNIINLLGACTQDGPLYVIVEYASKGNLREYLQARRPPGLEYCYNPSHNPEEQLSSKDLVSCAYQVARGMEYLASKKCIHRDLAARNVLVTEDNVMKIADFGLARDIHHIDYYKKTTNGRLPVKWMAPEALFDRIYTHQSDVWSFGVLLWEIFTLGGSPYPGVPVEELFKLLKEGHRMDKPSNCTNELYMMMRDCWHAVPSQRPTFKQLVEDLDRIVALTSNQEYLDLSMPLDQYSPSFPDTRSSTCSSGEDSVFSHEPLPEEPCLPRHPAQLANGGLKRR
Experiment notes: Transcreener Kinase Assay of FGFR1
Assay type: biochemical
Study conditions: read-out: FGFR1 (FP) IC50
Property name: IC50 (nM)

Before answering, review these 4 worked examples.
CNC(=O)c1cc(CCc2cnc(Nc3ccc(N4CCNC(C)(C)C4)cc3)nc2)c(Cl)c(OC)c1 [Compound 200] ... 9
CONC(=O)c1cc(CCc2cnc(Nc3ccn(C)n3)nc2)cc(OC)c1 [Compound 24] ... 47
CNC(=O)c1cc(CCc2cnc(Nc3cnn([C@@H]4CCCN(C)C4)c3)nc2)c(F)c(OC)c1 [Compound 165] ... 11
CCn1cc(Nc2ncc(OCc3cc(C(=O)NC)cc(OC)c3Cl)cn2)cn1 [Compound 184] ... 9

I: CCN(CC)CCn1cc(Nc2ncc(OCc3cc(C(=O)NC)cc(OC)c3Cl)cn2)cn1 [Compound 190]
II: CNC(=O)c1cc(OC)c(Cl)c(/C=C/c2cnc(Nc3ccc(N4C[C@@H](C)N[C@@H](C)C4)cc3)nc2)c1F [Compound 8]
III: CCN1CCN(c2cccc(Nc3ncc(CCc4cc(OC)cc(C(=O)NC)c4)cn3)c2)CC1 [Compound 9]
IV: CCN(CC)CCn1cc(Nc2ncc(OCc3cc(C(=O)NC)cc(OC)c3F)cn2)cn1 [Compound 189]
Query: Sequence the entries by IC50, beginning with the highest number. Response format: the labels, sorted as the prompt asks.
Result: III, IV, I, II
(III: 38 nM, IV: 23 nM, I: 12 nM, II: 6 nM)

====

Assay system FGFR3 kinase (Homo sapiens); read-out recorded as pIC50.
pIC50: −log10 of the molar value.
Property name: pIC50

Before answering, review these 8 worked examples.
CNC(=O)c1cc(CCc2cnc(Nc3cccc(N4C[C@@H](C)N[C@@H](C)C4)c3)nc2)cc(OC)c1 ... 6.89
CCOc1cc(CCc2cnc(Nc3ccc(N4CCN(CC)CC4)cc3)nc2)cc(C(=O)NOC)c1 ... 6.76
CNC(=O)c1cc(COc2ccc(Nc3ccc(N4C[C@@H](C)N[C@@H](C)C4)cc3)nc2)c(F)c(OC)c1 ... 6.48
CNC(=O)c1cc(CCc2cnc(Nc3cnn(CCCOC)c3)nc2)c(F)c(OC)c1 ... 7.77
CCN1CCN(c2ccc(Nc3ncc(/C=C/c4cc(C(=O)NC)cc(OC)c4F)cn3)cc2)CC1 ... 7.44
CNC(=O)c1cc(C#Cc2cnc(Nc3ccc(N4C[C@@H](C)N[C@@H](C)C4)cc3)nc2)c(Cl)c(OC)c1 ... 7.57
CONC(=O)c1cc(CCc2cnc(Nc3ccc(N4CCN(C)[C@H](C)C4)cc3)nc2)cc(OC)c1 ... 7.41
CNC(=O)c1cc(OC)c(F)c(COc2cnc(Nc3ccc(N4C[C@@H](C)N[C@@H](C)C4)cc3)nc2)c1F ... 8.10

a: CCN1CCN(c2ccc(Nc3ncc(CCc4cc(C(=O)NC)cc5occc45)cn3)cc2)CC1
b: CONC(=O)c1cc(CCc2cnc(Nc3cnn(C)c3)nc2)c(F)c(OC)c1
c: CNC(=O)c1cc(CCc2cnc(Nc3cnn(C)c3C)nc2)c(F)c(OC)c1
d: CNC(=O)c1cc(CCc2cnc(Nc3cnn(CCO)c3)nc2)c(Cl)c(OC)c1
e: CONC(=O)c1cc(CCc2cnc(Nc3ccn(C)n3)nc2)cc(OC)c1
Query: Sequence the entries by pIC50, beginning with the highest number. Response format: the labels, sorted as the prompt asks.
Result: b, d, c, e, a

A: CNC(=O)c1cc(COc2cnc(Nc3ccc(N4C[C@@H](C)N[C@@H](C)C4)c(C)c3)nc2)c(F)c(OC)c1
B: CNC(=O)c1cc(CCc2cnc(Nc3ccc4nc(C)oc4c3)nc2)c(F)c(OC)c1
Query: # compare pIC50 for A vs B ; return the one with the smaller value To answer, give the label that identifies your chosen option.
Result: B
(B: 7.34, A: 7.70)
